Target of assay: human recombinant CB1R (Homo sapiens)
Construct: purchased Perkin-Elmer, Italy; host or cells: HEK-293 cells (membranes)
Assay notes: Competition binding assay, displacement of [3H]-CP-55,940 from membranes of HEK-293 cells overexpressing CB1R
Experimental: The binding affinities (Ki values) of the compounds for human recombinant hCB1R and hCB2R were determined as previously described, using SR144528 as a reference compound [30], and are reported in Table 1. Compound affinity for CB1R and CB2R was measured as previously reported. […] Ki values were calculated by applying the Cheng−Prusoff equation to the IC50 values for the displacement of the bound radioligand by increasing concentrations of the test compound. […]
Property name: Ki

>>> result("CC(C)(C)N1CC(=NS(=O)(=O)c2cccc3ccccc23)N(CC2CC2)C1=O [Compound 10g]")
"> 10 µM"

----------
Target of assay: human CB2R (Homo sapiens, UniProt P34972)
Sequence (P34972 whole entry): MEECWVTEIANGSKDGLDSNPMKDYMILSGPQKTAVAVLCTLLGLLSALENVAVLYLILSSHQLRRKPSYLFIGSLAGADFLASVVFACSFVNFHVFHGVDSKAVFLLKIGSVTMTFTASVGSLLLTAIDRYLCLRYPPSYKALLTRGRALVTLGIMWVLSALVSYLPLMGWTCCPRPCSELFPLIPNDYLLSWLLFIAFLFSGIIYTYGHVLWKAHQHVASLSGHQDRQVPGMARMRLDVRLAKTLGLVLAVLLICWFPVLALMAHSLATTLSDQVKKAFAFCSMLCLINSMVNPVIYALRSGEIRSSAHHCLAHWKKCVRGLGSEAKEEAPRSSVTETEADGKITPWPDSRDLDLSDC
Assay notes: Competition binding assay, displacement of [3H]-CP-55,940 from membranes of HEK-293 cells overexpressing CB2R
Design: purchased Perkin-Elmer, Italy; host or cells: HEK-293 cells (membranes)
Measurement parameters: max conc. tested 25 µM; read-out: % Displacement/ Max Conc. Tested, hCB2R (converted)
Measured inhibition at 25 µM accompanies every entry in the list below.
Property name: inhibition at 25 µM (%)

>>> result_number("Cc1ccc(S(=O)(=O)N=C2CN(C(C)(C)C)C(=O)N2CC2CC2)cc1 [Compound 10c]")
89.5
>>> result_number("CS(=O)(=O)N=C1CN(C23CC4CC(CC(C4)C2)C3)C(=O)N1CC1CC1 [Compound 12a]")
76.5
>>> result_number("O=C1N(CC2CC2)C(=NS(=O)(=O)c2ccccc2)CN1C12CC3CC(CC(C3)C1)C2 [Compound 12b]")
84.5
>>> result_number("CC(C)(C)N1CC(=NS(=O)(=O)c2ccccc2)N(CC2CC2)C1=O [Compound 10b]")
73

----------
Target of assay: human CB2R (Homo sapiens)
Assay notes: Competition binding assay, displacement of [3H]-CP-55,940 from membranes of HEK-293 cells overexpressing CB2R
Parameters: purchased Perkin-Elmer, Italy; host or cells: HEK-293 cells (membranes)
Measurement parameters: max conc. tested 10 µM; read-out: % Displacement/ Max Conc. Tested, hCB2R (converted)
Entries get a class label from measured inhibition at 10 µM. See ranges: bin 0 (below 10%), bin 1 (10% to below 50%), bin 2 (50% or more)

>>> discrete_label("Cc1cc(C)c(S(=O)(=O)N=C2CN(C(C)(C)C)C(=O)N2c2ccccc2)c(C)c1 [Compound 9f]")
"bin 1"
>>> discrete_label("CC(C)(C)N1CC(=NS(=O)(=O)c2ccc(Br)cc2)N(CC2CC2)C1=O [Compound 10d]")
"bin 2"
>>> discrete_label("O=C1N(CC2CC2)C(=NS(=O)(=O)c2ccc(Br)cc2)CN1C12CC3CC(CC(C3)C1)C2 [Compound 12d]")
"bin 1"
>>> discrete_label("CC(C)(C)N1CC(=NS(=O)(=O)c2ccc3ccccc3c2)N(c2ccccc2)C1=O [Compound 9h]")
"bin 1"
>>> discrete_label("COCCN1C(=O)N(C(C)(C)C)CC1=NS(=O)(=O)c1ccc(Br)cc1 [Compound 11d]")
"bin 1"
>>> discrete_label("CCN1CC(=NS(=O)(=O)c2ccc(Br)cc2)N(CC)C1=O [Compound 4g]")
"bin 1"
>>> discrete_label("COCCN1C(=O)N(C(C)(C)C)CC1=NS(=O)(=O)c1ccc2ccccc2c1 [Compound 11h]")
"bin 1"
>>> discrete_label("COCCN1C(=O)N(C(C)(C)C)CC1=NS(=O)(=O)c1cccc(Br)c1 [Compound 11e]")
"bin 1"
>>> discrete_label("CCN1CC(=NS(=O)(=O)c2ccccc2)N(CC)C1=O [Compound 4e]")
"bin 0"
>>> discrete_label("COCCN1C(=O)N(C(C)(C)C)CC1=NS(C)(=O)=O [Compound 11a]")
"bin 1"
>>> discrete_label("CC(C)(C)N1CC(=NS(C)(=O)=O)N(c2ccccc2)C1=O [Compound 9a]")
"bin 0"
>>> discrete_label("CC(C)(C)N1CC(=NS(=O)(=O)c2cccc(Br)c2)N(c2ccccc2)C1=O [Compound 9e]")
"bin 1"
>>> discrete_label("CC(C)N1CC(=NS(=O)(=O)c2cccc3ccccc23)N(CC2CC2)C1=O [Compound 13]")
"bin 2"
>>> discrete_label("Cc1ccc(S(=O)(=O)N=C2CN(C(C)(C)C)C(=O)N2CC(C)C)cc1 [Compound 14]")
"bin 1"
>>> discrete_label("O=C1N(CC2CC2)C(=NS(=O)(=O)c2cccc(Br)c2)CN1C12CC3CC(CC(C3)C1)C2 [Compound 12e]")
"bin 2"
>>> discrete_label("COCCN1C(=O)N(C(C)(C)C)CC1=NS(=O)(=O)c1c(C)cc(C)cc1C [Compound 11f]")
"bin 2"
>>> discrete_label("CN1CC(=NS(=O)(=O)c2ccc(Cl)cc2)N(C)C1=O [Compound 4c]")
"bin 1"
>>> discrete_label("CCN1CC(=NS(=O)(=O)c2ccc(C)cc2)N(CC)C1=O [Compound 1]")
"bin 0"

----------
Target of assay: human recombinant CB1R (Homo sapiens, UniProt P21554)
Construct: purchased Perkin-Elmer, Italy; host or cells: HEK-293 cells (membranes)
Sequence (P21554 whole entry): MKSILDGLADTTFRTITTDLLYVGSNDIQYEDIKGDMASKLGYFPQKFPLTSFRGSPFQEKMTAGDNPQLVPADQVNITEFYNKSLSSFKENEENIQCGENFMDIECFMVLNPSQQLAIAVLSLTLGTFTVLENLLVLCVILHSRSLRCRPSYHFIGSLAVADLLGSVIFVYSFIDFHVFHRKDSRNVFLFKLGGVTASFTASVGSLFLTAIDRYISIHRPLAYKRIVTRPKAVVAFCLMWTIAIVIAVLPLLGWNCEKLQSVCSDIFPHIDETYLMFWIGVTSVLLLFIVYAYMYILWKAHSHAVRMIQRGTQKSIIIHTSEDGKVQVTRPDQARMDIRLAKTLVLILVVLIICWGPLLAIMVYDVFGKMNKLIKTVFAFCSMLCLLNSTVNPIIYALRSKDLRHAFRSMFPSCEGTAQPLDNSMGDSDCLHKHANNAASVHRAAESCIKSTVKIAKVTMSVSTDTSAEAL
Assay notes: Competition binding assay, displacement of [3H]-CP-55,940 from membranes of HEK-293 cells overexpressing CB1R
Measurement parameters: [3H]-CP-55,940 displacement, HEK-293 membranes, 90 min at 30 °C, Cheng-Prusoff; read-out: Ki hCB1R (µM ± S.E.)
Property name: Ki

>>> result("CN1CC(=NS(=O)(=O)c2ccccc2)N(C)C1=O")
"> 10 µM"
>>> result("CC(C)(C)N1CC(=NS(=O)(=O)c2ccc3ccccc3c2)N(CC2CC2)C1=O [Compound 10h]")
"> 10 µM"
>>> result("CC(C)N1CC(=NS(=O)(=O)c2cccc3ccccc23)N(CC2CC2)C1=O")
"> 10 µM"

----------
Measured melting point accompanies every entry in the list below.
Property name: melting point

>>> result("O=C1N(CC2CC2)C(=NS(=O)(=O)c2cccc(Br)c2)CN1C12CC3CC(CC(C3)C1)C2 [Compound 12e]")
"138 to 138.5 °C"
>>> result("COCCN1C(=O)N(C(C)(C)C)CC1=NS(C)(=O)=O [Compound 11a]")
"70.5 to 71 °C"
>>> result("COCCN1C(=O)N(C(C)(C)C)CC1=NS(=O)(=O)c1cccc2ccccc12 [Compound 11g]")
"110.5 to 111 °C"
>>> result("O=C1N(CC2CC2)C(=NS(=O)(=O)c2ccccc2)CN1C12CC3CC(CC(C3)C1)C2 [Compound 12b]")
"198 to 198.5 °C"
>>> result("Cc1ccc(S(=O)(=O)N=C2CN(C(C)(C)C)C(=O)N2CC2CC2)cc1 [Compound 10c]")
"104.5 to 105 °C"
>>> result("COCCN1C(=O)N(C(C)(C)C)CC1=NS(=O)(=O)c1ccc(C)cc1 [Compound 11c]")
"106 to 107 °C"
>>> result("CC(C)(C)N1CC(=NS(=O)(=O)c2ccccc2)N(CC2CC2)C1=O [Compound 10b]")
"114.5 to 115 °C"
>>> result("Cc1ccc(S(=O)(=O)N=C2CN(C34CC5CC(CC(C5)C3)C4)C(=O)N2CC2CC2)cc1 [Compound 12c]")
"188.5 to 189 °C"
